- ASSAY REMARKS: Solubility of Compound 1 in pharmaceutical solvents at 25° C.
- Format: physicochemical
- TEST SETTINGS: oil or lipid; Neobee M5, 25° C.
PARAMETER: solubility (µg/mL)
Give bare numbers, in µg/mL.

Write down solubility measured for item Cc1ccc(F)cc1C(=O)Nc1ccc(C(=O)N2Cc3cccn3Cc3ccccc32)c(Cl)c1
520

* * *

- ASSAY REMARKS: Solubility of Compound 1 in pharmaceutical solvents at 25° C.
- Type: physicochemical
- TEST SETTINGS: aqueous with cosolvent or surfactant or cyclodextrin; Gelucire 48109, 25° C.
PARAMETER: solubility

# return recorded solubility for input Cc1ccc(F)cc1C(=O)Nc1ccc(C(=O)N2Cc3cccn3Cc3ccccc32)c(Cl)c1
2260 µg/mL

* * *

- ASSAY REMARKS: Solubility of Compound 1 in pharmaceutical solvents at 25° C.
- Type: physicochemical
- TEST SETTINGS: oil or lipid; Miglyol 812, 25° C.
PARAMETER: solubility

Fill in solubility for record Cc1ccc(F)cc1C(=O)Nc1ccc(C(=O)N2Cc3cccn3Cc3ccccc32)c(Cl)c1 [Compound 1]
290 µg/mL

* * *

- ASSAY REMARKS: Solubility of Compound 1 in pharmaceutical solvents at 25° C.
- Type: physicochemical
- TEST SETTINGS: aqueous with cosolvent or surfactant or cyclodextrin; Cremophor EL, 25° C.
- From the text: Compound 1 is a nonpeptide vasopressin receptor antagonist and is insoluble in aqueous solutions throughout the physiological pH range (1.2 to 7.5).
PARAMETER: solubility (µg/mL)
Numbers only, in µg/mL.

Return solubility (reported value) for this molecule: Cc1ccc(F)cc1C(=O)Nc1ccc(C(=O)N2Cc3cccn3Cc3ccccc32)c(Cl)c1
5100

* * *

- ASSAY REMARKS: Solubility of Compound 1 in pharmaceutical solvents at 25° C.
- Format: physicochemical
- TEST SETTINGS: aqueous with cosolvent or surfactant or cyclodextrin; Aqueous solution of Poloxamer 188 (10, 20 and 30%), 25° C.
PARAMETER: solubility

Indicate the recorded solubility value for this compound: Cc1ccc(F)cc1C(=O)Nc1ccc(C(=O)N2Cc3cccn3Cc3ccccc32)c(Cl)c1
< 1 ng/mL

* * *

- ASSAY REMARKS: Solubility of Compound 1 in pharmaceutical solvents at 25° C.
- Assay type: physicochemical
- TEST SETTINGS: organic solvent or mixture; Benzyl Alcohol, 25° C.
- From the text: Compound 1 is a nonpeptide vasopressin receptor antagonist and is insoluble in aqueous solutions throughout the physiological pH range (1.2 to 7.5).
PARAMETER: solubility (mg/mL)
Answers are plain numbers, in mg/mL.

Please look at this molecule and report its solubility: Cc1ccc(F)cc1C(=O)Nc1ccc(C(=O)N2Cc3cccn3Cc3ccccc32)c(Cl)c1
21

* * *

- ASSAY REMARKS: Solubility of Compound 1 in pharmaceutical solvents at 25° C.
- Assay type: physicochemical
- TEST SETTINGS: oil or lipid; Safflower oil, 25° C.
PARAMETER: solubility

Query solubility for Cc1ccc(F)cc1C(=O)Nc1ccc(C(=O)N2Cc3cccn3Cc3ccccc32)c(Cl)c1 [Compound 1]
< 1 ng/mL

* * *

- ASSAY REMARKS: Solubility of Compound 1 in pharmaceutical solvents at 25° C.
- Format: physicochemical
- TEST SETTINGS: simulated gastric fluid; SGF without enzyme, 25° C.
- From the text: Compound 1 is a nonpeptide vasopressin receptor antagonist and is insoluble in aqueous solutions throughout the physiological pH range (1.2 to 7.5).
PARAMETER: solubility

Complete the entry with solubility for Cc1ccc(F)cc1C(=O)Nc1ccc(C(=O)N2Cc3cccn3Cc3ccccc32)c(Cl)c1 [Compound 1]
< 1 ng/mL
